# studyTarget: WT-CFTR channels (Homo sapiens, UniProt P13569)
# Construct: expressed in transfected cells
# Sequence (P13569 whole entry): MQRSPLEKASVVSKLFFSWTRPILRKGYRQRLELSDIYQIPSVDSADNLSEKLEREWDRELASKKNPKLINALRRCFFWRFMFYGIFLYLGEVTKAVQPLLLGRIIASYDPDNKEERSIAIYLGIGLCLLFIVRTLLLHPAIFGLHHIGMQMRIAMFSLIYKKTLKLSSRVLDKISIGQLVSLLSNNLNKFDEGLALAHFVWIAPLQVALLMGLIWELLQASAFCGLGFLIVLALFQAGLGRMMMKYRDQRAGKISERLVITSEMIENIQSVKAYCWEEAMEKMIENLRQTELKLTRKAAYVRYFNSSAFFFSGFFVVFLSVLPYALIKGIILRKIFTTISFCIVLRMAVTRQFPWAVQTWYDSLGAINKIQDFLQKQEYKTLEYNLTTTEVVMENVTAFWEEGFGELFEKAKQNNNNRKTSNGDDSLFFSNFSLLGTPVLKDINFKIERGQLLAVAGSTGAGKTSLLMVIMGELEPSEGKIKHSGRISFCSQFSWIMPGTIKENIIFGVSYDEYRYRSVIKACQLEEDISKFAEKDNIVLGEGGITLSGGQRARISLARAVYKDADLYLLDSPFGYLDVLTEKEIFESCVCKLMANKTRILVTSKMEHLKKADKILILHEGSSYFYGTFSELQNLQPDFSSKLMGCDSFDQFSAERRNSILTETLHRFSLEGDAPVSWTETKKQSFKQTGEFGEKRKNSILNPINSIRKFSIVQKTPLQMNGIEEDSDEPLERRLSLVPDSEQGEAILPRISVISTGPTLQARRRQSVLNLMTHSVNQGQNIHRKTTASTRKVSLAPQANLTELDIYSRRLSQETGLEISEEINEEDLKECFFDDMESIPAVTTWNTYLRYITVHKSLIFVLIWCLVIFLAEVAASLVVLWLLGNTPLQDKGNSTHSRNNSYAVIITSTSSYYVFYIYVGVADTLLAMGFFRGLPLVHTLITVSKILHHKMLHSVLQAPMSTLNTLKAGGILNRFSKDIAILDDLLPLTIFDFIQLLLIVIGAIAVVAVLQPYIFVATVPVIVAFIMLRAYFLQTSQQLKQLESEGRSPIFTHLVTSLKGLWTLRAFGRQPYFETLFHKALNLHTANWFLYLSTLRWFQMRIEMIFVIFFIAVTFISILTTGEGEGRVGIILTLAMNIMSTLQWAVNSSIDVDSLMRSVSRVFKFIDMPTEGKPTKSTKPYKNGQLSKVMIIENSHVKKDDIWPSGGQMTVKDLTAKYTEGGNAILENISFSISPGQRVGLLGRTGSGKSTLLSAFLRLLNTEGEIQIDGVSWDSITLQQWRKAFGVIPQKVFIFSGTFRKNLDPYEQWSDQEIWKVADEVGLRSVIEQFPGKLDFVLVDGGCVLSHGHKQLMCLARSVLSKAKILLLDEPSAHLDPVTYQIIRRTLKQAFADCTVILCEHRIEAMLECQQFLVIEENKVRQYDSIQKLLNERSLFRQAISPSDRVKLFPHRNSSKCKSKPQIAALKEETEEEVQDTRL
# test: IonWorks Quattro CFTR inhibitor assay (whole-cell planar patch clamp)
# Assay type: cell-based
# measurementSetup: inward current (−100 mV); CHO cells stably expressing WT-CFTR; CFTR activated by 10 μM forskolin; 10 min compound incubation
readout: IC50 (µM)
Numbers only, in µM.

-- ask Input Cc1csc(-c2c3c(=O)n(C)c(=O)n(C)c3c3n2CCC[C@H]3c2nc(Cl)cs2)n1 (single isomer, unassigned) , output reported IC50.
-- reply 0.05
